Reference source for all entries: patent US20250049798A1

- assay system: HiBiT tagged Wee1 (Homo sapiens, UniProt P30291)
- Sequence (P30291 whole entry): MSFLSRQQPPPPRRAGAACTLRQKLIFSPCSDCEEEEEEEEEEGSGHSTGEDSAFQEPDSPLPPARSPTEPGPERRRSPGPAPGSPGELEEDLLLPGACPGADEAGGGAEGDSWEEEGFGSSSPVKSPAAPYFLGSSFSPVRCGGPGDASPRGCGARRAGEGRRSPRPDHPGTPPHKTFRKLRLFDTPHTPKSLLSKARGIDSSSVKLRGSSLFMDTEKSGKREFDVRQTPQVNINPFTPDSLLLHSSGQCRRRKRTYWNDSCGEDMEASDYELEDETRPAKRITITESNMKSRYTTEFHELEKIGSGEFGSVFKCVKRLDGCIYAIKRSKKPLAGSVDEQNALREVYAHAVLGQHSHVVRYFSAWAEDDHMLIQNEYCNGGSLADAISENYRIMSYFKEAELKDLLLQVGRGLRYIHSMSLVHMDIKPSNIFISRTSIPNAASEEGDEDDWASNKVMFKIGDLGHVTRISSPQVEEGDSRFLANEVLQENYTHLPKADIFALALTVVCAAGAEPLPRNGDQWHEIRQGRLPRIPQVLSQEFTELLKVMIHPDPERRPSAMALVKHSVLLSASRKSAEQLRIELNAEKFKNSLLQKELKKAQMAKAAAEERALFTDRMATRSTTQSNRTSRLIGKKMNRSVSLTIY
- test description: Wee1 protein degradation assay (HiBiT assay)
- Assay type: cell-based
- assay setup: engineered HT-1080 cells, 20 hours
measured endpoint: DC50

Reference set (2 entries):
C=CCn1c(=O)c2cnc(Nc3ccc(C4CCN(CC5CCN(c6ccc(NC7CCC(=O)NC7=O)cc6C(F)(F)F)CC5)CC4)cc3)nc2n1-c1cccc(C(C)(C)O)n1 (stereo not drawn) ... < 100 nM
C=CCn1c(=O)c2cnc(Nc3ccc(C4CCN(CC5CCN(c6cccc7c6n(C)c(=O)n7C6CCC(=O)NC6=O)CC5)CC4)cc3)nc2n1-c1cccc(C(C)(C)O)n1 (stereo not drawn) ... < 100 nM

Now let's try a different one.
Value of DC50 reported for the compound C=CCn1c(=O)c2cnc(Nc3ccc(N4CCN(CC5CCN(c6ccc7c(N8CCC(=O)NC8=O)nn(C)c7c6)CC5)CC4)cc3)nc2n1-c1ccc2c(n1)[C@@](O)(CC)CC2 is < 100 nM

###

# maps each entry to its Dmax
- assay system: HiBiT tagged Wee1 (Homo sapiens)
- test description: Wee1 protein degradation assay (HiBiT assay)
- Format: cell-based
- assay setup: engineered HT-1080 cells, 20 hours; maximum percentage of Wee1 degradation; read-out: HiBiT Wee1: Dmax

Reference set (5 entries):
C=CCn1c(=O)c2cnc(Nc3ccc(N4CCC(N5CC[C@@H](c6ccc(NC7CCC(=O)NC7=O)cc6F)C(F)(F)C5)CC4)cc3)nc2n1-c1ccc2c(n1)[C@@](O)(CC)CC2 (single isomer, unassigned) ... > 75%
C=CCn1c(=O)c2cnc(Nc3ccc(N4CCN(CCCc5ccc6c(c5)C(=O)N(C5CCC(=O)NC5=O)C6=O)CC4)cc3)nc2n1-c1cccc(C(C)(C)O)n1 (stereo not shown) ... > 75%
C=CCn1c(=O)c2cnc(Nc3ccc(N4CCC(N5CC[C@H](c6ccc(NC7CCC(=O)NC7=O)cc6F)C(F)(F)C5)CC4)cc3)nc2n1-c1ccc2c(n1)[C@@](O)(CC)CC2 (single isomer, unassigned) ... > 75%
C=CCn1c(=O)c2cnc(Nc3ccc(C4CCN(CC5CCN(c6ccc7c(c6)C(=O)N(C6CCC(=O)NC6=O)C7=O)CC5)CC4)cc3)nc2n1-c1cccc(C(C)(C)O)n1 (stereo not shown) ... 50 to 75%
C=CCn1c(=O)c2cnc(Nc3ccc(N4CCN(CC5CCN(Cc6cccc7c6n(C)c(=O)n7C6CCC(=O)NC6=O)CC5)CC4)cc3)nc2n1-c1cccc(C(C)(C)O)n1 (stereo not shown) ... 50 to 75%

Value of Dmax reported for the compound Cc1cc(Nc2ncc3c(n2)N(C)CN(c2c(Cl)cccc2Cl)C3=O)ccc1C1CCN(CC2CCN(c3cccc4c3C(=O)N(C3CCC(=O)NC3=O)C4=O)CC2)CC1 (stereo not shown) is < 50%

Value of Dmax reported for the compound C=CCn1c(=O)c2cnc(Nc3ccc(N4CCN(CC5CCN(c6ccc(NC7CCC(=O)NC7=O)cc6F)CC5)CC4)cc3)nc2n1-c1ccc2c(n1)[C@@](O)(CC)CCC2 (single isomer, unassigned) is > 75%

Value of Dmax reported for the compound C=CCn1c(=O)c2cnc(Nc3ccc(N4CCN(CC5CCN(c6ccc7c(N8CCC(=O)NC8=O)nn(C)c7c6F)CC5)CC4)cc3)nc2n1-c1ccc2c(n1)[C@](C)(O)CC2 is > 75%

Value of Dmax reported for the compound C=CCn1c(=O)c2cnc(Nc3ccc(N4CCC(CN5CCN(c6ccc7c(N8CCC(=O)NC8=O)nn(C)c7c6)CC5)CC4)c(C)c3)nc2n1-c1ccc2c(n1)[C@@](O)(CC)CC2 is > 75%

Value of Dmax reported for the compound C=CCn1c(=O)c2cnc(Nc3ccc(N4CCN(CC5CCN(c6ccc(NC7CCC(=O)NC7=O)cc6F)CC5)CC4)cc3)nc2n1-c1cccc(C(C)(C)O)n1 (stereo not shown) is > 75%
